The origin of these recorded values is ChEMBL document CHEMBL5058577.

- Tested on: HEK-293T
- ASSAY_DETAILS: Multiplex assay against HEK293T
- Assay type: toxicity, cell-based
- REPORTED_CONDITIONS: human, 12 h, 1 µM, compound concentration 1 uM, replicate 1
OBSERVABLE: Population Pyknosed Nuclei (%)
Enter your answer as a number in %; do not include the unit.

Take a look at these entries with their results.
1. O=C(Nc1cc(-c2ccccc2)nn1-c1ccccc1F)c1ccc([N+](=O)[O-])cc1 ... 13
2. Cc1cc(NC(=O)NCCN2CCC(O)(Cc3ccccc3)CC2)c2ccccc2n1 ... 14
3. S=C(NCCCc1c[nH]cn1)NCCCN(Cc1ccc(Cl)c(Cl)c1)c1ccc(Br)cn1 ... 13
4. CN(C)C/C=C/C(=O)Nc1ccc(C(=O)N2CCCC(Nc3ncc(Cl)c(-c4c[nH]c5ccccc45)n3)C2)cc1 (centres undefined) ... 35

Param request: Population Pyknosed Nuclei (%) | system HEK-293T | item `COCCn1c(C)c(C)s/c1=N\C(=O)C1C(C)(C)C1(C)C`
12

Supply Population Pyknosed Nuclei (%) measured with HEK-293T for `CN1CCN(c2ccc(Nc3c4ccccc4nc4ccccc34)cc2)CC1.Cl.Cl.O` .
11

====

- Tested on: Fibroblast
- ASSAY_DETAILS: Multiplex assay against human fibroblast
- Assay type: toxicity, cell-based
- REPORTED_CONDITIONS: 12 h, 10 µM, compound concentration 10 uM, replicate 2
OBSERVABLE: Population Hoechst High Intensity Objects (%)
State the result as a value with its unit after it.

Consider the following illustrative entries.
1) O=c1nc2[nH]c3ccccc3nc-2c(=O)[nH]1 [ALLOXAZINE] ... 1%
2) Cc1ccc(OCC(O)C(C)NC(C)C)c2c1CCC2.Cl (centres undefined) ... 2%
3) CSc1nc(NC2CCCC2)c([N+](=O)[O-])c(NC2CCCC2)n1 [GS-39783] ... 6%
4) COc1cc2nc(N3CCN(C(=O)c4ccco4)CC3)nc(N)c2cc1OC.Cl [PRAZOSIN HYDROCHLORIDE] ... 5%
5) CC(C)C[C@H](CO)Nc1nc(S[C@@H](C)c2ccccc2)nc2nc(N)sc12 [AZD-8797] ... 5%

Assign Population Hoechst High Intensity Objects (%) to the following record: COc1ccc2c(c1OCc1ccccc1)C[C@@H](C(=O)O)N(C(=O)C(c1ccccc1)c1ccccc1)C2 [OLODANRIGAN]
5%

Please report the measured Population Hoechst High Intensity Objects (%) for `CN1CCN(c2ccc(Nc3c4ccccc4nc4ccccc34)cc2)CC1.Cl.Cl.O`
16%

Provide Population Hoechst High Intensity Objects (%) value for the following molecule: COc1ccc2[nH]c(I)c(CCNC(C)=O)c2c1 [IODOMELATONIN]
3%

For `COc1cc(C(=O)N2CC[C@@H](O)[C@@H](N)C2)cc2nc(-c3cc4ccccc4n3CC3CC3)n(C)c12.Cl` , write its Population Hoechst High Intensity Objects (%).
10%

====

- Tested on: HEK-293T
- ASSAY_DETAILS: Multiplex assay against HEK293T
- Format: toxicity, cell-based
- REPORTED_CONDITIONS: human, 24 h, 1 µM, compound concentration 1 uM, replicate 2
OBSERVABLE: Total Cell Count
API note: the answer field is a bare number with no unit suffix.

Some molecules with recorded Total Cell Count:
1. CC(F)(F)CN1CCOc2c(nn(-c3ccccc3Cl)c2-c2ccc(Cl)cc2)C1=O ... 478
2. C[C@@H]1CC(=O)Nc2cccc(-c3ccc4c(c3)c(-c3cnn(C)c3)nn4C)c2N1 ... 422
3. Cc1nn(C)c2nc(NNC(=O)Nc3cc(Cl)nc(Cl)c3)cc(C(C)C)c12 ... 512
4. S=C(NCCCc1c[nH]cn1)NCCCN(Cc1ccc(Cl)c(Cl)c1)c1ccc(Br)cn1 ... 301
5. COCCCN1CCC(NC(=O)c2cc(Cl)c(N)c3c2OCC3)CC1 [PRUCALOPRIDE] ... 546

Given O=C(O)CCC/C=C\CC1C(O)CC(O)C1/C=C/C(O)COc1cccc(Cl)c1 (centres undefined) [CLOPROSTENOL] , respond with its Total Cell Count.
477

Identify measured Total Cell Count corresponding to CCCCC[C@H](O)/C=C/[C@H]1[C@H](O)CC(=O)[C@@H]1CCCCCCC(=O)O [ALPROSTADIL]
526

Quote Total Cell Count reported for Cc1cc(NC(=O)NCCN2CCC(O)(Cc3ccccc3)CC2)c2ccccc2n1 [PALOSURAN] please.
343

Please report the measured Total Cell Count for Cc1c(Cc2ccc3ccccc3n2)c2cc(F)ccc2n1CC(=O)O [TIMAPIPRANT]
381
